- Tested on: FXR:RXRa (NR concentration 270 nM, RXRa partner concentration 90 nM)
- protocol_details: PBM binding z-score (relative to random genomic background probes); higher = stronger binding; sequences stand for … in GC…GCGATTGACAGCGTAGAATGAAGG

- chain: "TCTTGTAGATCAAGCAGGTTAAAAAAGCCTGAGT"
  PBM binding z-score: 0.399
- chain: "TTACTAAGGTGAAGGTCGTTGATCCCTCTGTAGA"
  PBM binding z-score: 3.06
- chain: "CCGACTGGGGCATAAGGTTACCATTAGCCAGCCC"
  PBM binding z-score: 0.294
- chain: "ATCTCTAGGTAACCAAGTTCATTGAATGCCGAAC"
  PBM binding z-score: 0.729
- chain: "TCATATAGGTAAACAGGTGAAAGCCCGTAAGTTA"
  PBM binding z-score: 0.95
- chain: "CGTCAAAGTTAAACTAAGGTAACGTAAAGCACGC"
  PBM binding z-score: 0.945
- chain: "TCTTGTAGATCAGCAGGTTAAAAAAGCTGGCCAA"
  PBM binding z-score: 0.198
- chain: "ACAGACTGGTGATGAAGGTAACTCAGGCTATCAT"
  PBM binding z-score: -0.533
- chain: "GCTTGTGGATCAAGGTTAAGAAAGACTAAGCTAA"
  PBM binding z-score: 0.286
- chain: "CAAACTAGGTCAAAGGTGAAAGTCGAGCCAACCA"
  PBM binding z-score: 6.6
- chain: "CCAGACAGGTTAAAGGTAACTCAGTCTGGTACGC"
  PBM binding z-score: 1.95
- chain: "GCTATTAGTTGAGAGGGCAACCGAATGATTCTCG"
  PBM binding z-score: 0.249
- chain: "CAAACTAGGTCACCGGAAGGTCAAAGTACGCATG"
  PBM binding z-score: 6.81
- chain: "TCTTGTAGATCAAAGGTTAATAAAGCCGAAGCCT"
  PBM binding z-score: 1.43
- chain: "ACTATTAGTAGACTTAGGGCAACCGATACGACGC"
  PBM binding z-score: -0.142
- chain: "ATATGTCGGTTAGCTGGGGTCATTCAGACTAGGC"
  PBM binding z-score: 3.68
- chain: "TATACAGGGTCAAAGGCCACAGTACGAATGTCGA"
  PBM binding z-score: 7.15
- chain: "GCTAGAAGGCCATTTGGGTCACTCAATGACGGGC"
  PBM binding z-score: 0.421
- chain: "GATACAGGGACAGCTAGAGGCCAGAGTATGGAAA"
  PBM binding z-score: -0.243
- chain: "CGAACTAGGTCATAACAGGACAGTGAAGGATGAT"
  PBM binding z-score: 3.19
- chain: "ACAGACAGGTGAGTGACGGTAACTCAGCTGGACG"
  PBM binding z-score: -0.187
- chain: "GCTGCTAGGTCAGGTTGGTCAGCTATCGGGTACG"
  PBM binding z-score: 1.38
- chain: "ATATGTAGGTTACATCCGGGTCATTAAGGCTATG"
  PBM binding z-score: 2.39
- chain: "CGTCCAAGGTCATAGCAGGTCAGTGAAGACAGAT"
  PBM binding z-score: 7.63
- chain: "ATCTCTAGGTAAGACTCAGTTGAGTGAAGAACGC"
  PBM binding z-score: 0.19
- chain: "GCTCGGAGGACACGGTCAGAGCTTTGTCCGTAGA"
  PBM binding z-score: -0.337

----------
# PBM binding z-score per record follows
- System: LXRa homodimer (NR concentration 270 nM)
- protocol_details: PBM binding z-score (relative to random genomic background probes); higher = stronger binding; sequences stand for … in GC…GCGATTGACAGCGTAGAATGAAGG

- chain: "TGTTAAAGTTCAAAGGTAACGTAAGTATCCACAC"
  PBM binding z-score: 5.38
- chain: "TCTTGTTGGTCACGGAGGTCACACACGACGGGTA"
  PBM binding z-score: 3.29
- chain: "CCTACTGGGCCAAAGGTCATTGATTCCAATGCTC"
  PBM binding z-score: 4.17
- chain: "GCTCGGAGGACAAGGTGAGAGCTTTGTCCGTAGA"
  PBM binding z-score: -1.2
- chain: "TAGCCTAGGTCATTCTGGGGCCAGTATAGAAAGC"
  PBM binding z-score: 0.795
- chain: "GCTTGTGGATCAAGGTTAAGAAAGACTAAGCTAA"
  PBM binding z-score: -0.433
- chain: "TAGCCGAGGTCATGGGCCAGTATACCACGCGAAC"
  PBM binding z-score: 0.925
- chain: "ACTAGCAGGCCAAGGTTGGGTCACTCAAACAAAG"
  PBM binding z-score: -0.416
- chain: "GGAACGAGTGCATTCGAGTTGATAGCATGGCGAT"
  PBM binding z-score: -0.89
- chain: "CCTACTGGCCCACGAAAGGTCATTGATTCAGTGA"
  PBM binding z-score: 5.66
- chain: "ACTTACGGGCCAACGAGGTTATAGCACGCGTATA"
  PBM binding z-score: -0.119
- chain: "TCGAGTAGGTTACCAATGGGGCACTCAGCTTTCT"
  PBM binding z-score: -1.03
- chain: "TCTAGTTGGTCACGGAGGTCAAACACGACGGGTA"
  PBM binding z-score: 4.58
- chain: "TCATATAGGTAAGACAGGTGAAAGTCGGCATCTA"
  PBM binding z-score: 0.129
- chain: "GTACCAAGGTGAATAGGTGGTTGATGAGTAGGCG"
  PBM binding z-score: -0.513
- chain: "GGAACGAAGGCAAAGTTGATAGCATCTGTCGACG"
  PBM binding z-score: -0.64
- chain: "GCTGCTAGGTCAACTGATGGTCGGCTAAAGCTCG"
  PBM binding z-score: 0.00529
- chain: "ATCGAAAGGTCGTGAGCTGAGTATACAGAAAGGC"
  PBM binding z-score: 0.0249
- chain: "CCTAGTTGGTCAGGAGGTCAAACACCGGATATGA"
  PBM binding z-score: 3.59
- chain: "CGTCCAAGGTTAATGCTAGGTCAGTGAAAGCATT"
  PBM binding z-score: 1.76
- chain: "AAAATGAGGTTATACGTAGATCAGGGAAGAAAGT"
  PBM binding z-score: 0.225
- chain: "ATACCATGGTGATCGTGAGGTCGTTGATACTAAC"
  PBM binding z-score: 0.284
- chain: "CGAACCAGGGCATGAGTTGATAGCAAATGCCGAT"
  PBM binding z-score: -0.295
- chain: "CTACCATGGTGAACAAGGTCGTTGATTACTATTC"
  PBM binding z-score: 0.165
- chain: "TCTAGCAGGCCAGAGGATCACTCAAGAGGTACGG"
  PBM binding z-score: -0.763
- chain: "CCTACTGGGCCATTCAGTGGTCATTGATCATATG"
  PBM binding z-score: -0.281

----------
- System: PPARg:RXRa 270nM:90nM, anti-RXR (NR concentration 270 nM, RXRa partner concentration 90 nM)
- protocol_details: PBM binding z-score (relative to random genomic background probes); higher = stronger binding; sequences stand for … in GC…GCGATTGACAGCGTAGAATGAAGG
PBM binding z-score reference

- chain: "TGAATGAGGTTAAAGATCAGGGGACGTGGCGTCG"
  PBM binding z-score: 6.37
- chain: "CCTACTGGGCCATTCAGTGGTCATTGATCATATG"
  PBM binding z-score: 0.661
- chain: "ATCGAAAGGTCGAGGTGGGTATAGAGAAAGGGAA"
  PBM binding z-score: 3.11
- chain: "CGAATTAGGTCAGAACAGGACAGTGAAGGATGAT"
  PBM binding z-score: 4.59
- chain: "GCTAGCAGGCCATGTGGGTCACTCAATGACGGGC"
  PBM binding z-score: 1.18
- chain: "GCATATAGTTAATACAAGGTGAAAGTCCGATTGT"
  PBM binding z-score: 0.639
- chain: "TCGTGTAGATCAATAGAGGTTAAGAAAGTGCGCT"
  PBM binding z-score: 1.57
- chain: "ATCGAAAGGTCGTTAGGTGAGTATACAGAAAGGC"
  PBM binding z-score: 3.29
- chain: "GGAACGAGGGCAAAGTTTATAGCATCTGTCGACG"
  PBM binding z-score: 7.55
- chain: "TCTTGTAGATCAAAGGTTATGAAAGCCGAAGCCT"
  PBM binding z-score: 7.7
- chain: "CAACCAAGGTGAACAAGGTCGTTGATTACTATTC"
  PBM binding z-score: 1.41
- chain: "ACTATTAGTTGACACGAGGGCAACCGATAGGTTG"
  PBM binding z-score: 0.472
- chain: "TCATATAGGTAAATGCTAGGTGACAGTCCGATCT"
  PBM binding z-score: 2.02
- chain: "ATCTCTAGGTAAAATTCAGTGAAAGATCGATAGA"
  PBM binding z-score: 0.699
- chain: "GCTAGCAGCCCATTTGGGTCACTCAATGACGGGC"
  PBM binding z-score: 0.0178
- chain: "GCTGCTAGGTCAGGTTTGTCAGCTAACGGGTACG"
  PBM binding z-score: 0.692
- chain: "ATATGTAGGGTACATCCGGGTCATTCAGGCTATG"
  PBM binding z-score: 3.53
- chain: "CCTACTGGGGCATTCAGAGGTCATTGATCATATG"
  PBM binding z-score: 4.13
- chain: "CCTCGGAGGCCAACAGGAGGTCAGAGCTGCCAGA"
  PBM binding z-score: 0.339
- chain: "CCTAGCAGGCCAATCTGAGTCACTCAAGGCTTGA"
  PBM binding z-score: -0.961
- chain: "TCTGCTAGGTCAACGATGCTCAGCTAATCTGCTA"
  PBM binding z-score: 2.92
